Recorded emission maximum, one value per entry.
Experiment: solvent given as SMILES
Details: in CC(C)=O
Assay metric: emission maximum (nm)

[[record]]
compound = "Cc1ccc2c(CC(=O)NN)coc2c1"
assay_metric = "emission maximum"
value_observed = 402

[[record]]
compound = "CCn1c2ccccc2c2cc(/C=C/c3cccc(/C=C/c4ccc5c(c4)c4ccccc4n5CC)[n+]3CCCS(=O)(=O)[O-])ccc21"
assay_metric = "emission maximum"
value_observed = 578

[[record]]
compound = "O=S(=O)(c1ccc(-c2ccc(-c3nc4c5ccccc5c5ccccc5c4n3-c3ccccc3)cc2)cc1)c1ccc(-c2ccc(-c3nc4c5ccccc5c5ccccc5c4n3-c3ccccc3)cc2)cc1"
assay_metric = "emission maximum"
value_observed = 468

[[record]]
compound = "CCCCC1=Cc2c3ccc4cccc5ccc(c6cc(-c7ccccc7)n(c26)P1(=O)c1ccccc1)c3c45 (centres undefined)"
assay_metric = "emission maximum"
value_observed = 459

[[record]]
compound = "C(=C\\c1nc(/C=C/c2ccc(N(c3ccccc3)c3ccccc3)cc2)cc(/C=C/c2ccc(N(c3ccccc3)c3ccccc3)cc2)n1)/c1ccccc1"
assay_metric = "emission maximum"
value_observed = 563

[[record]]
compound = "COc1ccc(/C=C2\\OC(=O)c3cc(N)ccc32)cc1"
assay_metric = "emission maximum"
value_observed = 446.03

[[record]]
compound = "CC1=[N+]2C(=C(c3ccc(N(C)C)cc3)c3ccc(C)n3[B-]2(F)F)C=C1"
assay_metric = "emission maximum"
value_observed = 515

[[record]]
compound = "COc1cc(N(c2ccccc2)c2ccccc2)ccc1C=C(C#N)C#N"
assay_metric = "emission maximum"
value_observed = 587

[[record]]
compound = "O=C1c2ccc3c4ccc5c6c(ccc(c7ccc(c2c37)C(=O)N1c1ccncc1)c64)C(=O)N(c1ccncc1)C5=O"
assay_metric = "emission maximum"
value_observed = 570

[[record]]
compound = "COc1cc(-c2cc(-c3ccc(C)cc3)nc3c(C#N)c(N4CCCC4)nc(N)c23)cc(OC)c1OC"
assay_metric = "emission maximum"
value_observed = 521

[[record]]
compound = "CC1=[N+]2C(=C(c3ccc(N4CCOCC4)cc3)c3ccc(C)n3[B-]2(F)F)C=C1"
assay_metric = "emission maximum"
value_observed = 517

[[record]]
compound = "Cc1ccc(C(=O)/C=C/c2ccc(N(C)C)cc2)cc1"
assay_metric = "emission maximum"
value_observed = 516

[[record]]
compound = "Nc1ccccc1C(=O)O"
assay_metric = "emission maximum"
value_observed = 394

[[record]]
compound = "CCCN1C(=O)C(=CC=CC=C2Oc3ccccc3N2CCCS(=O)(=O)[O-])C(=O)N(CCC)C1=S"
assay_metric = "emission maximum"
value_observed = 580

[[record]]
compound = "Cn1cc(-c2nc3ccccc3nc2/C=C/N2CCCC2)c2ccccc21"
assay_metric = "emission maximum"
value_observed = 465.99

[[record]]
compound = "CCN(CC)c1ccc2cc(/C=C/C(=C(C#N)C#N)c3ccc4c(c3)c3ccccc3n4CC)c(=O)oc2c1"
assay_metric = "emission maximum"
value_observed = 614

[[record]]
compound = "CCC1=C(C)C2=C(C)c3c(I)c(I)cn3[B-](F)(F)[N+]2=C1C"
assay_metric = "emission maximum"
value_observed = 533

[[record]]
compound = "COc1cc(/C=C/c2cc[n+](Cc3ccc(Br)cc3)cc2)ccc1O"
assay_metric = "emission maximum"
value_observed = 562

[[record]]
compound = "CN(C)c1ccc(C2=Nc3sc4ccccc4[n+]3[B-](F)(F)O2)cc1"
assay_metric = "emission maximum"
value_observed = 482


Reference source: the Deep4Chem optical property database
